Some compounds, each annotated with its measured MES, number of animals protected / total number of animals tested.
- System: MES-induced seizure spread
- assay-explanation: Maximal Electroshock Seizure (MES) test, mice i.p.
- Assay type: in vivo
- stated-conditions: mice i.p., 30 mg/kg, 0.5h
- Protocol: The fluoro derivatives synthesized were submitted to the National Institute of Neurological Disorders and Stroke (NINDS) for evaluation in a standard panel of assays. […] The felbamate derivatives were evaluated for anticonvulsant activity following intraperitoneal (i.p.) administration in mice and oral administration in rats. […]
quantity-kind: MES, number of animals protected / total number of animals tested

[[record]]
compound = "O=C1NC(O)C(c2ccccc2)CO1 (stereo not shown) [Cyclic MCF]"
result = "0/1"

[[record]]
compound = "O=C1NC(=O)C(F)(c2ccccc2)CO1 (stereo not shown) [fluoro dioxo]"
result = "0/1"

[[record]]
compound = "NC(=O)OCC(F)(CO)c1ccccc1 (stereo not shown) [fluoro monocarbamate felbamate]"
result = "0/1"

[[record]]
compound = "NC(=O)OCC(F)(COC(N)=O)c1ccccc1 [fluoro felbamate]"
result = "1/1"

